Test system: A549
protocol.summary: Inhibition of pseudotyped HIV/EBOV GP infected in human A549 cells assessed as reduction in virus entry at 12.5 uM measured after 48 hrs by luciferase reporter gene assay relative to control
Type: cell-based
condition: Ebolavirus
measurement.label: inhibition
Don't forget the unit after the number, please.

Examples with their reported inhibition follow.
smi	inhibition
O=C(NCCC1CCCCC1)c1ccc(CN2CCCCC2)cc1	90.9%
COC(=O)c1cccc(NC(=O)c2ccc(CN3CCCCC3)cc2)c1	0%
O=C(Nc1ccc(C2CCCCC2)cc1)c1ccc(CN2CCCCC2)cc1	98.1%
COC(=O)c1ccc2c(c1)CCN2C(=O)c1ccc(CN2CCCCC2)cc1	41.7%
O=C(c1ccc(CN2CCCCC2)cc1)N1CCc2ccc(C(F)(F)F)cc21	83.7%
COC(=O)c1ccc(NC(=O)c2ccc(CN3CCCCC3)s2)cc1	33.8%
O=C(Nc1ccc(C(F)(F)F)cc1)c1ccc(CN2CCCCC2)s1	80.2%
O=C(Nc1ccc(N2CCC(F)(F)CC2)cc1)c1ccc(CN2CCCCC2)cc1	99.7%
CC1CCN(c2ccc(NC(=O)c3ccc(CN4CCOCC4)cc3)cc2C(F)(F)F)CC1	99.3%
O=C(Nc1ccc(C(F)(F)F)nc1)c1ccc(CN2CCCCC2)cc1	5.4%

# returns recorded inhibition (system: A549) for N#Cc1ccc(NC(=O)c2ccc(CN3CCCCC3)cc2)cc1
0%

Moving on to O=C(c1ccc(CN2CCCCC2)cc1)N1CC2(CC2)c2ccccc21
74.5%
